- assaySystem: HLA-B*35:01
- runDescription: IEDB peptide-MHC binding, purified MHC/competitive/radioactivity; bounds were set here for any values at or beyond the usual limits of such assays
- runParameters: source organism: Bordetella pertussis
propertyLabel: pIC50
Hey, just a heads up that pIC50 is the negative log base 10 of the concentration in molar.

A selection of reference data follows.
>  <biosequence>
YALKSRIAL

>  <pIC50>
4.71

$$$$
>  <biosequence>
PFIIKLKDC

>  <pIC50>
4.93

$$$$
>  <biosequence>
YSTGDLRAY

>  <pIC50>
4.50

$$$$
>  <biosequence>
VIGACTSPY

>  <pIC50>
4.20

$$$$

--- query ---
State the recorded pIC50 for this entry: TPLPVSLTA
6.68
